Biological target: LXRα full length (FL) (Homo sapiens, UniProt Q13133)
Construct: the full length (FL) proteins of LXRα (amino acids 1-447); NP005684; expressed in transfected cells; host or cells: HEK293
Sequence (Q13133 whole entry, the tested form may be a part): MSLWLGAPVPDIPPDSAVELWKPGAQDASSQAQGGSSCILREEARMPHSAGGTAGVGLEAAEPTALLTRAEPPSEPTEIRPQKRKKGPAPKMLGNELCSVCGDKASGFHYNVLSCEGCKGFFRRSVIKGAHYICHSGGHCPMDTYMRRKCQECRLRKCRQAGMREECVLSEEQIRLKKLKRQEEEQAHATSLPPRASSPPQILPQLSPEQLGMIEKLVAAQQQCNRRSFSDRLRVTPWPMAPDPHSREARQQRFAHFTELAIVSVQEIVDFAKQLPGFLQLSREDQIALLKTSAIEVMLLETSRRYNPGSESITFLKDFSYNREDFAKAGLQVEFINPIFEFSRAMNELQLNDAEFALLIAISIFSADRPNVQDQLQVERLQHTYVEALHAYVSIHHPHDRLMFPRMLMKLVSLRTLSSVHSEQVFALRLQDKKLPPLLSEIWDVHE
Assay: LXR Gal4 reporter transient transfection assay, mammalian two-hybrid, FL-M2H Gal4α
Format: cell-based
Details: HEK293 cells; inverse agonist unless *
pEC50: −log10 of the molar value.
OBSERVED_PROPERTY: pEC50

>  <COMPOUND>
CCOC(=O)OC(OC(=O)C(C)(C)c1cccc(-c2ccc(CN(Cc3ccc(C(F)(F)F)o3)C(=O)c3c(C)ccc4ccccc34)cc2)c1)C(C)C (stereo not shown)

>  <EXPERIMENTAL_VALUE>
> 7.00

$$$$
>  <COMPOUND>
Cc1nc2cccnc2c(C(=O)N(Cc2ccc(-c3cccc(C(C)(C)C(=O)O)c3)cc2)Cc2ccc(C(F)F)o2)c1C

>  <EXPERIMENTAL_VALUE>
> 7.00

$$$$
>  <COMPOUND>
Cc1ccc2ccccc2c1C(=O)N(Cc1ccc(-c2cncc(C(C)(C)C(=O)O)c2)cc1)Cc1ccc(C(F)(F)F)o1

>  <EXPERIMENTAL_VALUE>
6.00 to 7.00

$$$$
>  <COMPOUND>
CCNC(=O)c1ccc(CN(Cc2ncc(-c3cccc(C(C)C(=O)O)c3)cc2Cl)C(=O)c2c(C)c(C)nc3ccccc23)o1 (stereo not shown)

>  <EXPERIMENTAL_VALUE>
5.00 to 6.00

$$$$
>  <COMPOUND>
Cc1ccc2ccccc2c1C(=O)N(Cc1ccc(-c2cccc([C@H](C)C(=O)O)c2)cc1)Cc1cccc(C(F)(F)F)c1

>  <EXPERIMENTAL_VALUE>
> 7.00

$$$$
>  <COMPOUND>
N#Cc1ccc2ccccc2c1CN(Cc1ccc(-c2cccc(S(=O)(=O)CC(=O)O)c2)cc1)Cc1ccc(C(F)(F)F)o1

>  <EXPERIMENTAL_VALUE>
5.00 to 6.00

$$$$
>  <COMPOUND>
CN(C)c1ncc(CN(Cc2ccc(-c3cccc(C(C)(C)C(=O)O)c3)cc2)Cc2ccc(C(F)(F)F)o2)c2ccccc12

>  <EXPERIMENTAL_VALUE>
> 7.00

$$$$

Data provenance: patent US20200131144A1
